System: MCF7 human breast carcinoma cells
Assay: MCF-7 SRB Growth Assay
Format: cell-based
Conditions: read-out: GROWTH DATA: MCF7 10% FBS
pIC50: −log10 of the molar value.
Reported metric: pIC50

{"Molecule smiles": "O=C(Nc1ccc(SC(F)(F)F)cc1)Nc1ccc(Oc2ccc(Cl)cc2Cl)nc1", "pIC50": 5.70}

(1) N#Cc1ccc(NC(=S)Nc2ccc(S(=O)(=O)N3CCCCC3)cc2)cc1
(2) CC(C)S(=O)(=O)c1csc(NC(=O)Nc2cc(C(F)(F)F)cc(C(F)(F)F)c2)c1Cl
(3) CC(C)S(=O)(=O)c1csc(NC(=O)Nc2ccc(C(C)(C)C)cc2)c1Cl
QUERY: Please list these compounds in decreasing order of pIC50. Returns: the labels listed in the requested order.
RESULT: 2, 1, 3

---

Target: FLK-1 receptor (Mus musculus, UniProt P35918)
Assay: ELISA Assay to Measure Kinase Activity of FLK-1 Receptor in FLK-1/NIH Cells
Settings: cellular, VEGF stimulated; read-out: ELISA DATA: FLK-1 - (Cell.)
Reported metric: IC50 (nM)
Express it in nM; write the number only.

QUERY: IC50 of CC(C)S(=O)(=O)c1csc(NC(=O)Nc2ccc(C(C)(C)C)cc2)c1Cl on FLK-1 receptor (Mus musculus, UniProt P35918)?
RESULT: 1000

---

Biological target: IGF-1R (Homo sapiens, UniProt P08069)
Construct: expressed in transfected cells; host or cells: 3T3/IGF-1R
Sequence (P08069 31-1367): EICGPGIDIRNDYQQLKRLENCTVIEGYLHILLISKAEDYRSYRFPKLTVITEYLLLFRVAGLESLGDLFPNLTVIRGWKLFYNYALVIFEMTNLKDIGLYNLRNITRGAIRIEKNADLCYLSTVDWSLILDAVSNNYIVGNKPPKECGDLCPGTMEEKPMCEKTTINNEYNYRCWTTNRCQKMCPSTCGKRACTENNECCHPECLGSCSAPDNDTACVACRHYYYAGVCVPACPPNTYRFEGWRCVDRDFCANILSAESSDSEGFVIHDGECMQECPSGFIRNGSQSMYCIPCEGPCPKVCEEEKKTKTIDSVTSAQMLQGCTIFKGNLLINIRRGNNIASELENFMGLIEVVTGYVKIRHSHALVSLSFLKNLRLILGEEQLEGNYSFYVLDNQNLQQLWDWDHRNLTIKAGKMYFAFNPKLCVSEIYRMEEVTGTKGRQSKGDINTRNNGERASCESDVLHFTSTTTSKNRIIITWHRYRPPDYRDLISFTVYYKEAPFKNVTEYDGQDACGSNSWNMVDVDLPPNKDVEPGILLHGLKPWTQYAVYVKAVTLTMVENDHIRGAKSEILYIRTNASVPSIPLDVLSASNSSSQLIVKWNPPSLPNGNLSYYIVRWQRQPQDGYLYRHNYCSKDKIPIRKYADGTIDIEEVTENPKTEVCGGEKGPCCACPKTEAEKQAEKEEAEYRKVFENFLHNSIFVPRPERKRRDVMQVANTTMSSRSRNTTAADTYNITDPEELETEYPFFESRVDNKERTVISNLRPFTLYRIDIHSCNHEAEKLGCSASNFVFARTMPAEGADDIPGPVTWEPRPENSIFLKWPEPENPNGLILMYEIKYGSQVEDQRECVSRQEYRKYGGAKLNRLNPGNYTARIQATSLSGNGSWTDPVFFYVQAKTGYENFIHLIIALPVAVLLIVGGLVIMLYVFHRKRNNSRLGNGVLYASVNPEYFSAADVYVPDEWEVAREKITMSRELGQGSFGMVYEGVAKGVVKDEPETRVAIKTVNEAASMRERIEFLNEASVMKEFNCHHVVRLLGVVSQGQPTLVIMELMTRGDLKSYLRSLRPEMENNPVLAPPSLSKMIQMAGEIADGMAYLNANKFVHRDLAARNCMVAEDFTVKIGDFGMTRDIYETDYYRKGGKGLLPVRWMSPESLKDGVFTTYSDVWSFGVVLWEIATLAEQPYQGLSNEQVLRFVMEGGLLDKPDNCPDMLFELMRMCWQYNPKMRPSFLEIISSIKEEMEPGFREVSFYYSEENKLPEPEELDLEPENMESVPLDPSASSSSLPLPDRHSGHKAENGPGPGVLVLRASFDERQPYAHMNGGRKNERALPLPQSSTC
Assay: Cellular IGF-1 Receptor ELISA
Format: cell-based
Reported metric: IC50 (µM)
Express it in µM; write the number only.

QUERY: Need IC50 of O=C(Nc1ccc(SC(F)(F)F)cc1)Nc1ccc(Oc2ccc(Cl)cc2Cl)nc1 , thanks.
RESULT: 16.5

---

pIC50 values for the molecules below.
Target: PDGFR-beta (Homo sapiens)
Construct: the human glioblastoma line U1242 that expresses PDGFR-beta; endogenous in cells; host or cells: U1242 (U1242 MG) human glioblastoma
Sequence (P09619 33-1106): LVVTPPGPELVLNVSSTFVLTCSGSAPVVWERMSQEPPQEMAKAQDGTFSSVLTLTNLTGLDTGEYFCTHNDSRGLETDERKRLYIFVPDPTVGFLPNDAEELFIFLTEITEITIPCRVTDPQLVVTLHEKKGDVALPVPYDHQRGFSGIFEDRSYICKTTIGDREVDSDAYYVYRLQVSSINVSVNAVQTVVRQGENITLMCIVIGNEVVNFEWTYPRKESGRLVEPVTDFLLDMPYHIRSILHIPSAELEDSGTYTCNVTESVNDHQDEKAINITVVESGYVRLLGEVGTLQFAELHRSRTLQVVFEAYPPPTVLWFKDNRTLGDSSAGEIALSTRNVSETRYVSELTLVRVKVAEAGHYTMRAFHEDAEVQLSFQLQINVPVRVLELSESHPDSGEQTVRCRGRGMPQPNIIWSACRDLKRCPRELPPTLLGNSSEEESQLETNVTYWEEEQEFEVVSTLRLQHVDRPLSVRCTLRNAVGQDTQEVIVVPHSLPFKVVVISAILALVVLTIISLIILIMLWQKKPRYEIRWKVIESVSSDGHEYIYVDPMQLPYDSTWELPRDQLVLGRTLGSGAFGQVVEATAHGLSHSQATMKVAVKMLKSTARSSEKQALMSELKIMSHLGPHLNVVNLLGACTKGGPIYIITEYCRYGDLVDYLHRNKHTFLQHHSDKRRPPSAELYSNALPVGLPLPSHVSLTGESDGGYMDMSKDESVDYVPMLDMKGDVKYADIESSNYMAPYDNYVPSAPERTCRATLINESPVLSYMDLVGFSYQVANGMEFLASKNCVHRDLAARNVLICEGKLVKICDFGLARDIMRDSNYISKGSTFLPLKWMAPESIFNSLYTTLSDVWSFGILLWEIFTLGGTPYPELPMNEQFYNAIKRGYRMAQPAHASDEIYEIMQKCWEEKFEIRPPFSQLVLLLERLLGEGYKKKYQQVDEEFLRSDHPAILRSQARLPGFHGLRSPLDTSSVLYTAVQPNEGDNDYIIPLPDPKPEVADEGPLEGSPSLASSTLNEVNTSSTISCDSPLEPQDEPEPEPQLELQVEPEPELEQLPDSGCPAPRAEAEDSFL
Assay: PDGF-R Cellular Assay (cellular kinase ELISA)
Format: cell-based
Conditions: U1242 MG cells, PDGF-BB stimulated; read-out: ELISA DATA: PDGFR
pIC50: −log10 of the molar value.

{"Molecule smiles": "CC(C)S(=O)(=O)c1csc(NC(=O)Nc2ccc(C(C)(C)C)cc2)c1Cl", "Measured target": "PDGFR-beta (Homo sapiens)", "Readout value": "< 4.30"}
{"Molecule smiles": "N#Cc1ccc(NC(=S)Nc2ccc(S(=O)(=O)N3CCCCC3)cc2)cc1", "Measured target": "PDGFR-beta (Homo sapiens)", "Readout value": "< 4.00"}

Now consider the entry below.
QUERY: Need pIC50 of CC(C)S(=O)(=O)c1csc(NC(=O)Nc2cc(C(F)(F)F)cc(C(F)(F)F)c2)c1Cl , thanks.
RESULT: < 4.30

---

Molecular target: IGF-1R (Homo sapiens)
Construct: expressed in transfected cells; host or cells: 3T3/IGF-1R
Experiment: Cellular IGF-1 Receptor ELISA
Format: cell-based
Settings: 3T3/IGF-1R cells, IGF-1 stimulated; read-out: ELISA DATA: IGF-1R
pIC50: −log10 of the molar value.
pIC50 values for the molecules below.

Check out these entries, answers already filled in.
{"Molecule smiles": "CC(C)S(=O)(=O)c1csc(NC(=O)Nc2cc(C(F)(F)F)cc(C(F)(F)F)c2)c1Cl", "Measured target": "IGF-1R (Homo sapiens)", "pIC50": "< 4.00"}
{"Molecule smiles": "N#Cc1ccc(NC(=S)Nc2ccc(S(=O)(=O)N3CCCCC3)cc2)cc1", "Measured target": "IGF-1R (Homo sapiens)", "pIC50": "< 4.00"}

Now consider the entry below.
QUERY: Need pIC50 of CC(C)S(=O)(=O)c1csc(NC(=O)Nc2ccc(C(C)(C)C)cc2)c1Cl , thanks.
RESULT: < 4.00

---

Biological target: PDGFR-beta (Homo sapiens)
Construct: the human glioblastoma line U1242 that expresses PDGFR-beta; endogenous in cells; host or cells: U1242 (U1242 MG) human glioblastoma
Experiment: PDGF-R Cellular Assay (cellular kinase ELISA)
Type: cell-based
pIC50: −log10 of the molar value.
Reported metric: pIC50

QUERY: Need pIC50 of O=C(Nc1ccc(SC(F)(F)F)cc1)Nc1ccc(Oc2ccc(Cl)cc2Cl)nc1 , thanks.
RESULT: < 4.00

---

pIC50 values for the molecules below.
Biological target: Insulin Receptor (Homo sapiens, UniProt P06213)
Construct: host or cells: H25 (NIH3T3)
Sequence (P06213 28-1382, species assumed): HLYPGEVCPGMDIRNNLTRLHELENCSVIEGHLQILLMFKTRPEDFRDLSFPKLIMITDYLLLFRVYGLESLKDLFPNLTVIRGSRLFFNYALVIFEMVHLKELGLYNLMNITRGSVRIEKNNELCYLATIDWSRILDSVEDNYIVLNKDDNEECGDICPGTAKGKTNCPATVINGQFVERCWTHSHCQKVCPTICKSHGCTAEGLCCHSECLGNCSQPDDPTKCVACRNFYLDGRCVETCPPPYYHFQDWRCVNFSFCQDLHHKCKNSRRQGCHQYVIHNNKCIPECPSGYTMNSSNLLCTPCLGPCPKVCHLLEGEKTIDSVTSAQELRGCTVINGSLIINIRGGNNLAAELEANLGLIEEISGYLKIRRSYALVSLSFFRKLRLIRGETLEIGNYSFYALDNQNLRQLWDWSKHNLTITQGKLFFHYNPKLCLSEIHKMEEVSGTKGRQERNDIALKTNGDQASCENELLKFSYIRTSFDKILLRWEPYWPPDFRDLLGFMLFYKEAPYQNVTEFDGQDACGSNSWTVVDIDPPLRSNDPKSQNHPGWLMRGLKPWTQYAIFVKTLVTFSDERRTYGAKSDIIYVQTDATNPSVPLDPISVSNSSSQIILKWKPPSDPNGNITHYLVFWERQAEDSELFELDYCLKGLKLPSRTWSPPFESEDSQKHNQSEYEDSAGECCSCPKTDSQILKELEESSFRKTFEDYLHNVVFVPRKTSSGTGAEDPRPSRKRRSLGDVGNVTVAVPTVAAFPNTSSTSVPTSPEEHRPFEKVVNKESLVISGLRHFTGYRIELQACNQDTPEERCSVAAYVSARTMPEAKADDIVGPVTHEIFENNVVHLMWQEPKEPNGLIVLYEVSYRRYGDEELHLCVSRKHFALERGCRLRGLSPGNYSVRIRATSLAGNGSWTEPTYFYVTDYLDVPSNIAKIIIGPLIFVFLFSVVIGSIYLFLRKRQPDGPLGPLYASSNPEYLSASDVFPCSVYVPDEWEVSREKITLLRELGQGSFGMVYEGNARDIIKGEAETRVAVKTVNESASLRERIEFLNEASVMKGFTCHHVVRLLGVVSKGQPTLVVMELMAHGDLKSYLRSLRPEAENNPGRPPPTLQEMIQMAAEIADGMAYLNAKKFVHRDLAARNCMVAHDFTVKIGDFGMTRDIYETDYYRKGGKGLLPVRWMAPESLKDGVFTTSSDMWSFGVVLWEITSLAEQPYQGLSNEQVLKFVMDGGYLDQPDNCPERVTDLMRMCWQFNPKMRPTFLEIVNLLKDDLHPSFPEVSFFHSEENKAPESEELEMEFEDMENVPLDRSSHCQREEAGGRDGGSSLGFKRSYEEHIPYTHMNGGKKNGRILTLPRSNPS
Assay: Cellular Insulin Receptor ELISA
Assay type: cell-based
Settings: H25 cells (NIH3T3 overexpressing Insulin Receptor), insulin stimulated; read-out: ELISA DATA: IR
pIC50: −log10 of the molar value.

{"Molecule": "CC(C)S(=O)(=O)c1csc(NC(=O)Nc2ccc(C(C)(C)C)cc2)c1Cl [Example Z1]", "Reported metric": "pIC50", "Readout value": "< 4.00"}

QUERY: Need pIC50 of CC(C)S(=O)(=O)c1csc(NC(=O)Nc2cc(C(F)(F)F)cc(C(F)(F)F)c2)c1Cl [Example Z2] , thanks.
RESULT: < 4.00

---

Molecular target: human EGF receptor (Homo sapiens, UniProt P00533)
Construct: expressed in transfected cells; host or cells: NIH3T3 clone C7 (EGFR/C7)
Sequence (P00533 25-1210): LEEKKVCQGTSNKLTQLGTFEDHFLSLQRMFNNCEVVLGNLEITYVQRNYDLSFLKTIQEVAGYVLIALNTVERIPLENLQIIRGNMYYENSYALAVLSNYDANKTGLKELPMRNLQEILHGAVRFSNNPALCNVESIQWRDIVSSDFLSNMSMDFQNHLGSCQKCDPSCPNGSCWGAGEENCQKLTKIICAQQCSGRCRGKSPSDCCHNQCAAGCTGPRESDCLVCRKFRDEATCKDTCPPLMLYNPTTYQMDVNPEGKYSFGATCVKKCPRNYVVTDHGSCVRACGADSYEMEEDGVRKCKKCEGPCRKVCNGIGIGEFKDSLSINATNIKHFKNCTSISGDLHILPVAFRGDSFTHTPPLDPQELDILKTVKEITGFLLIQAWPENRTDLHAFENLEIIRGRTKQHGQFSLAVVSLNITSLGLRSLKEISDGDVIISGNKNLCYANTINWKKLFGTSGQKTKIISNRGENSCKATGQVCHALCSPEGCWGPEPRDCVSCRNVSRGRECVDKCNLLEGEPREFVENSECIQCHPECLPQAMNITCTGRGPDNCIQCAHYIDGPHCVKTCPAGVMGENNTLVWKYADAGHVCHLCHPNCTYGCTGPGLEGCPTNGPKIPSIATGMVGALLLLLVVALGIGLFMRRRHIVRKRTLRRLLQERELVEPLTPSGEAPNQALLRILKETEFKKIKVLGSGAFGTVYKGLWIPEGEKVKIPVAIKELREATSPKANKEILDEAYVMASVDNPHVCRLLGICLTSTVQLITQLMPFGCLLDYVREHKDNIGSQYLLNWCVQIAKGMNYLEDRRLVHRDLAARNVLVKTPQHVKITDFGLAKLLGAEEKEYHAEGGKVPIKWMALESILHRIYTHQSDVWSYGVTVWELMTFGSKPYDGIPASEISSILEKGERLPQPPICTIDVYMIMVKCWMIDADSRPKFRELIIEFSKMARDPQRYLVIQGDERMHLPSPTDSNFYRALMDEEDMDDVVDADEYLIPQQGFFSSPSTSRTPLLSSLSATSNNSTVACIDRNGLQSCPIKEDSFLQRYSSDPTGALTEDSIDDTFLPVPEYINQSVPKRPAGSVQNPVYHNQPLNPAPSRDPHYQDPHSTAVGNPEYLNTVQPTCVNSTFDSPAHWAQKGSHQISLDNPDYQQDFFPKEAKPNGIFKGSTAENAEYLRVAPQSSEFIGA
Experiment: EGFR Whole Cell Kinase Assay (EGFR-3T3 assay)
Assay type: cell-based
Reported metric: IC50 (µM)
Express it in µM; write the number only.

QUERY: Need IC50 of O=C(Nc1ccc(SC(F)(F)F)cc1)Nc1ccc(Oc2ccc(Cl)cc2Cl)nc1 [Example Z3] , thanks.
RESULT: 69.5

---

Test system: NIH3T3 cells overexpressing the HER2 kinase (3T3-HER2)
Experiment: 3T3 Growth Assay (HER2-overexpressing 3T3 cells, SRB)
Assay type: cell-based
Settings: Mus musculus, read-out: GROWTH DATA: 3T3/HER2 10% FBS
Reported metric: pIC50
To interpret pIC50, take it as minus log10 of a concentration measured in moles per litre.

Check out these entries, answers already filled in.
{"Compound": "CC(C)S(=O)(=O)c1csc(NC(=O)Nc2ccc(C(C)(C)C)cc2)c1Cl [Example Z1]", "Reported metric": "pIC50", "Readout value": 4.82}
{"Compound": "CC(C)S(=O)(=O)c1csc(NC(=O)Nc2cc(C(F)(F)F)cc(C(F)(F)F)c2)c1Cl [Example Z2]", "Reported metric": "pIC50", "Readout value": 4.74}

Now consider the entry below.
QUERY: Need pIC50 of O=C(Nc1ccc(SC(F)(F)F)cc1)Nc1ccc(Oc2ccc(Cl)cc2Cl)nc1 [Example Z3] , thanks.
RESULT: 4.74
